Test system: MDA−MB−231 cells
Assay: Cellular uptake of Pt by ICP-MS
Assay type: cell-based
Settings: MDA−MB−231, 3 µM, 6 h
Flag rule - Intracellular Concentration less than 0.3 nmol/10^6 cells flags Criterion met; the remaining entries get Criterion not met.

[[record]]
molecule = "N.N.[Cl][Pt][Cl] [Cisplatin, cisplatin]"
assay_system = "MDA−MB−231 cells"
class_name = "Criterion met"

[[record]]
molecule = "N[C@H]1CCCC[C@@H]1N.O=[N+]([O-])[O-].O=[N+]([O-])[O-].[OH-].[OH-].[Pt+4].c1cnc2c(c1)ccc1cccnc12"
assay_system = "MDA−MB−231 cells"
class_name = "Criterion met"

[[record]]
molecule = "Cc1c(C)c2cccnc2c2ncccc12.N[C@H]1CCCC[C@@H]1N.O=[N+]([O-])[O-].O=[N+]([O-])[O-].[Pt+2]"
assay_system = "MDA−MB−231 cells"
class_name = "Criterion not met"


**Q:** API: query returns whether the molecule falls strictly under 0.3 nmol/10^6 cells in Intracellular Concentration. Query: `N[C@H]1CCCC[C@@H]1N.O=[N+]([O-])[O-].O=[N+]([O-])[O-].[Pt+2].c1cnc2c(c1)ccc1cccnc12`
**A:** Criterion not met

**Q:** Queued: `Cc1cc2cccnc2c2ncccc12.N[C@H]1CCCC[C@@H]1N.O=[N+]([O-])[O-].O=[N+]([O-])[O-].[OH][Pt+2][OH]`
**A:** Criterion met

**Q:** Queued: `Cc1cc2cccnc2c2ncccc12.N[C@H]1CCCC[C@@H]1N.O=[N+]([O-])[O-].O=[N+]([O-])[O-].[Pt+2]`
**A:** Criterion not met

---

Test system: HT29 cells
Test: TMRE mitochondrial membrane potential assay
Type: cell-based
Settings: HT29, 48 h, complexes at IC50, FCCP 20 µM
READOUT_TYPE: MtMp (mitochondrial membrane potential) (RFU)
One number for each entry, in RFU.

[[record]]
compound = "N[C@H]1CCCC[C@@H]1N.O=[N+]([O-])[O-].O=[N+]([O-])[O-].[OH-].[OH-].[Pt+4].c1cnc2c(c1)ccc1cccnc12"
readout_type = "MtMp (mitochondrial membrane potential)"
readout_number = 261.95


Hello, I would appreciate it if you could give MtMp (mitochondrial membrane potential) for each entry below.
1. Cc1cc2cccnc2c2ncccc12.N[C@H]1CCCC[C@@H]1N.O=[N+]([O-])[O-].O=[N+]([O-])[O-].[Pt+2] [Pt^II5MESS]
2. Cc1c(C)c2cccnc2c2ncccc12.N[C@H]1CCCC[C@@H]1N.O=[N+]([O-])[O-].O=[N+]([O-])[O-].[OH][Pt+2][OH] [Pt^IV56MESS(OH)2]
3. Cc1c(C)c2cccnc2c2ncccc12.N[C@H]1CCCC[C@@H]1N.O=[N+]([O-])[O-].O=[N+]([O-])[O-].[Pt+2] [Pt^II56MESS]

**A:**
1. 211.88
2. 172.39
3. 151.44

---

Test system: HT29 cells
Test: Cellular uptake of Pt by ICP-MS
Format: cell-based
Conditions: HT29, 3 µM, 0.5 h
Record Met whenever Intracellular Concentration is at 0.2 nmol/10^6 cells or higher; record Not met when lower.

[[record]]
compound = "Cc1c(C)c2cccnc2c2ncccc12.N[C@H]1CCCC[C@@H]1N.O=[N+]([O-])[O-].O=[N+]([O-])[O-].[Pt+2] [Pt^II56MESS]"
class_name = "Met"

[[record]]
compound = "Cc1cc2cccnc2c2ncccc12.N[C@H]1CCCC[C@@H]1N.O=[N+]([O-])[O-].O=[N+]([O-])[O-].[OH][Pt+2][OH] [Pt^IV5MESS(OH)2]"
class_name = "Not met"

[[record]]
compound = "Cc1cc2cccnc2c2ncccc12.N[C@H]1CCCC[C@@H]1N.O=[N+]([O-])[O-].O=[N+]([O-])[O-].[Pt+2] [Pt^II5MESS]"
class_name = "Met"

[[record]]
compound = "N[C@H]1CCCC[C@@H]1N.O=[N+]([O-])[O-].O=[N+]([O-])[O-].[Pt+2].c1cnc2c(c1)ccc1cccnc12"
class_name = "Met"

[[record]]
compound = "N[C@H]1CCCC[C@@H]1N.O=[N+]([O-])[O-].O=[N+]([O-])[O-].[OH-].[OH-].[Pt+4].c1cnc2c(c1)ccc1cccnc12"
class_name = "Not met"

[[record]]
compound = "Cc1c(C)c2cccnc2c2ncccc12.N[C@H]1CCCC[C@@H]1N.O=[N+]([O-])[O-].O=[N+]([O-])[O-].[OH][Pt+2][OH] [Pt^IV56MESS(OH)2]"
class_name = "Not met"


**Q:** Please check the record N.N.[Cl][Pt][Cl] [Cisplatin, cisplatin] and state if its Intracellular Concentration is at or above 0.2 nmol/10^6 cells.
**A:** Met

---

Assign potency relative to cisplatin to each entry below.
Test system: MCF−7
Experiment: WST-1 cytotoxicity, 72 h
Format: cell-based
Settings: MCF−7, 72 h
Procedure: Cells were seeded in 96-well flat-bottom culture plates at a concentration of 1000 cells per well. […] After 72 h, the medium was removed and replaced with new medium. The cell viability reagent WST-1 (10 µL, Roche Diagnostics, Indianapolis, IN, USA) was added to each well. After an hour, the absorbance was measured at 450 nm using a versatile microplate reader (Bio-strategy, Campbellfield, VIC, Australia). Three separate experiments were performed, each with n = 3 replicates. […]
Give bare numbers, in fold.

[[record]]
compound = "N[C@H]1CCCC[C@@H]1N.O=[N+]([O-])[O-].O=[N+]([O-])[O-].[OH-].[OH-].[Pt+4].c1cnc2c(c1)ccc1cccnc12"
readout_type = "potency relative to cisplatin"
readout_number = 3

[[record]]
compound = "Cc1cc2cccnc2c2ncccc12.N[C@H]1CCCC[C@@H]1N.O=[N+]([O-])[O-].O=[N+]([O-])[O-].[Pt+2] [Pt^II5MESS]"
readout_type = "potency relative to cisplatin"
readout_number = 38

[[record]]
compound = "N[C@H]1CCCC[C@@H]1N.O=[N+]([O-])[O-].O=[N+]([O-])[O-].[Pt+2].c1cnc2c(c1)ccc1cccnc12"
readout_type = "potency relative to cisplatin"
readout_number = 18

[[record]]
compound = "Cc1cc2cccnc2c2ncccc12.N[C@H]1CCCC[C@@H]1N.O=[N+]([O-])[O-].O=[N+]([O-])[O-].[OH][Pt+2][OH] [Pt^IV5MESS(OH)2]"
readout_type = "potency relative to cisplatin"
readout_number = 15

[[record]]
compound = "Cc1c(C)c2cccnc2c2ncccc12.N[C@H]1CCCC[C@@H]1N.O=[N+]([O-])[O-].O=[N+]([O-])[O-].[OH][Pt+2][OH] [Pt^IV56MESS(OH)2]"
readout_type = "potency relative to cisplatin"
readout_number = 24


# context switch: different compound, same potency relative to cisplatin
**Q:** Reported potency relative to cisplatin, compound Cc1c(C)c2cccnc2c2ncccc12.N[C@H]1CCCC[C@@H]1N.O=[N+]([O-])[O-].O=[N+]([O-])[O-].[Pt+2] [Pt^II56MESS] : ____
**A:** 59

---

Tested on: HT29 cells
Experiment: Cellular uptake of Pt by ICP-MS
Assay type: cell-based
Details: HT29, extracellular 3 µM, 24 h
READOUT_TYPE: Intracellular/extracellular ratio
Answers are plain numbers.

[[record]]
compound = "Cc1c(C)c2cccnc2c2ncccc12.N[C@H]1CCCC[C@@H]1N.O=[N+]([O-])[O-].O=[N+]([O-])[O-].[OH][Pt+2][OH] [Pt^IV56MESS(OH)2]"
readout_number = 1435.74

[[record]]
compound = "N[C@H]1CCCC[C@@H]1N.O=[N+]([O-])[O-].O=[N+]([O-])[O-].[OH-].[OH-].[Pt+4].c1cnc2c(c1)ccc1cccnc12"
readout_number = 813.09

[[record]]
compound = "Cc1cc2cccnc2c2ncccc12.N[C@H]1CCCC[C@@H]1N.O=[N+]([O-])[O-].O=[N+]([O-])[O-].[Pt+2] [Pt^II5MESS]"
readout_number = 3327.94

[[record]]
compound = "Cc1c(C)c2cccnc2c2ncccc12.N[C@H]1CCCC[C@@H]1N.O=[N+]([O-])[O-].O=[N+]([O-])[O-].[Pt+2] [Pt^II56MESS]"
readout_number = 3657.59

[[record]]
compound = "Cc1cc2cccnc2c2ncccc12.N[C@H]1CCCC[C@@H]1N.O=[N+]([O-])[O-].O=[N+]([O-])[O-].[OH][Pt+2][OH] [Pt^IV5MESS(OH)2]"
readout_number = 1158.37


# context switch: different compound, same Intracellular/extracellular ratio
**Q:** Reported Intracellular/extracellular ratio, compound `N[C@H]1CCCC[C@@H]1N.O=[N+]([O-])[O-].O=[N+]([O-])[O-].[Pt+2].c1cnc2c(c1)ccc1cccnc12` : ____
**A:** 2397.59

Taken from paper PMC11274883.
